self-splicing fitness (ln) listing for selected sequences.
EXPERIMENT_DESCRIPTION: self-splicing fitness, log relative to wild type (ln ratio); higher = more splicing; Tetrahymena group I intron in knt gene, E. coli kanamycin selection, DiMSum; sequences stand for … in CUCUCU…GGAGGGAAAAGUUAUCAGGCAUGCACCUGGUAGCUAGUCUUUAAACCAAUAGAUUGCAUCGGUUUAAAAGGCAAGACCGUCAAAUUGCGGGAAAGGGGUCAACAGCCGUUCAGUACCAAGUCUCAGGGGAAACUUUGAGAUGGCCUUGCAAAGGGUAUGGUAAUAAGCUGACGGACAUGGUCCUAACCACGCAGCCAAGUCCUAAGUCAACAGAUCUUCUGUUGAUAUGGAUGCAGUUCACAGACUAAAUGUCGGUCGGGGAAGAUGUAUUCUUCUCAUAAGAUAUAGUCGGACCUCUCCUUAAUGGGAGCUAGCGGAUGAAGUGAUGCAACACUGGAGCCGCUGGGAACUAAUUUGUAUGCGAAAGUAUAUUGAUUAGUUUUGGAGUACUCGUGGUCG;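 further: selection with 25 µg/mL kanamycin versus none on LB agar overnight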
EXPERIMENTAL_CONTEXT: 37 °C
Write the value as a bare number.

# count of solved cases: 3
{"SEQUENCE_TEXT": "CCGCAGCAAUAUUACGAUGC", "ATTRIBUTE_MEASURED": "self-splicing fitness (ln)", "READOUT_NUMBER": -2.88}
{"SEQUENCE_TEXT": "CGAAAGCAAUAUUACGGCAU", "ATTRIBUTE_MEASURED": "self-splicing fitness (ln)", "READOUT_NUMBER": -0.29}
{"SEQUENCE_TEXT": "UCCCAGCAAUAUUACGGGCA", "ATTRIBUTE_MEASURED": "self-splicing fitness (ln)", "READOUT_NUMBER": -0.2}

query: Report self-splicing fitness (ln) for CUAAAGCAAUAUUACGAGUC please.
result: -2.96

query: Report self-splicing fitness (ln) for CCCCAGCAAUAUUACGGUCG please.
result: -1.2

query: Report self-splicing fitness (ln) for UCACAGCAAUAUUACGGAAA please.
result: -1.85

query: Report self-splicing fitness (ln) for CCAUAGCAAUAUUACGAGCC please.
result: -2.16

query: Report self-splicing fitness (ln) for CUUAAGCAAUAUUACGCCCG please.
result: 0.386

query: Report self-splicing fitness (ln) for CUACAGCAAUAUUACGCCUG please.
result: -0.209

###

EXPERIMENT_DESCRIPTION: self-splicing fitness, log relative to wild type (ln ratio); higher = more splicing; Tetrahymena group I intron in knt gene, E. coli kanamycin selection, DiMSum; sequences stand for … in CUCUCU…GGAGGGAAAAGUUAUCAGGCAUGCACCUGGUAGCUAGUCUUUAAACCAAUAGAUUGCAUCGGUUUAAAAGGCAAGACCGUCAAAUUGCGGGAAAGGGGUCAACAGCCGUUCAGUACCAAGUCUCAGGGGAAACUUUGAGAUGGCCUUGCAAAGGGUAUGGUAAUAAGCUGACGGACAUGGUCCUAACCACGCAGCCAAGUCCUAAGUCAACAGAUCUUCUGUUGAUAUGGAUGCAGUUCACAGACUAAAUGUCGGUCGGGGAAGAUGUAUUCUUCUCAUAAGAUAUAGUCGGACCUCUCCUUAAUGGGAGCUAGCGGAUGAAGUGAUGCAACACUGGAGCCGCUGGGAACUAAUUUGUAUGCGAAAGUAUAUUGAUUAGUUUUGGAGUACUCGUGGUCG
EXPERIMENTAL_CONTEXT: 30 °C
Threshold check on self-splicing fitness (ln): at or above -2 gives Condition met, strictly below gives Condition not met.

query: self-splicing fitness (ln) >= -2 for AGCGAGCAAUAUUACGCUCU ?
result: Condition not met

###

EXPERIMENT_DESCRIPTION: self-splicing fitness, log relative to wild type (ln ratio); higher = more splicing; Tetrahymena group I intron in knt gene, E. coli kanamycin selection, DiMSum; sequences stand for … in CUCUCU…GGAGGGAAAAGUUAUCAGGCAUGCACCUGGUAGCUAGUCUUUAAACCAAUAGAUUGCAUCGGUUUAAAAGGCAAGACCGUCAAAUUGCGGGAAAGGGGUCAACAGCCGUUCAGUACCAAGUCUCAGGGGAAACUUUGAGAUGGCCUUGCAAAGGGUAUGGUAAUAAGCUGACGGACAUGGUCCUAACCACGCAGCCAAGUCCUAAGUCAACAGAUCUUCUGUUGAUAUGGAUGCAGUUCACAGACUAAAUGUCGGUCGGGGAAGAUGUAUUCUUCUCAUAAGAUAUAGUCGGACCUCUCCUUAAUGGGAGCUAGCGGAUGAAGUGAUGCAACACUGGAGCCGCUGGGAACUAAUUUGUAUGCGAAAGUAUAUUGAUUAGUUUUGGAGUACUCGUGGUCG
EXPERIMENTAL_CONTEXT: 37 °C
Category | rule: reported self-splicing fitness (ln) within range, see bucket 1: < -2; bucket 2: ≥ -2 and < -0.7; bucket 3: ≥ -0.7

See these solved cases before continuing.
{"SEQUENCE_TEXT": "GCAAAGCAAUAUUACGGCAU", "CLASSIFICATION": "bucket 3"}
{"SEQUENCE_TEXT": "GUCAAGCAAUAUUACGGUCG", "CLASSIFICATION": "bucket 2"}
{"SEQUENCE_TEXT": "CCACAGCAAUAUUACGUAAG", "CLASSIFICATION": "bucket 3"}

query: Tag the class for CUUAAGCAAUAUUACGUGGC
result: bucket 3

query: Tag the class for CGAGAGCAAUAUUACGACGU
result: bucket 1

query: Tag the class for CCACAGCAAUAUUACGCGCU
result: bucket 1

query: Tag the class for CUCAAGCAAUAUUACGACAG
result: bucket 3

query: Tag the class for UAUUAGCAAUAUUACGCUCG
result: bucket 3

query: Tag the class for CCGCAGCAAUAUUACGCGUU
result: bucket 1

query: Tag the class for AAUCAGCAAUAUUACGAUCG
result: bucket 3

query: Tag the class for GUUGAGCAAUAUUACGUCAG
result: bucket 1

query: Tag the class for GUGCAGCAAUAUUACGAUCG
result: bucket 2

query: Tag the class for AAUAAGCAAUAUUACGCUAG
result: bucket 2

###

self-splicing fitness (ln) listing for selected sequences.
EXPERIMENT_DESCRIPTION: self-splicing fitness, log relative to wild type (ln ratio); higher = more splicing; Tetrahymena group I intron in knt gene, E. coli kanamycin selection, DiMSum; sequences stand for … in CUCUCU…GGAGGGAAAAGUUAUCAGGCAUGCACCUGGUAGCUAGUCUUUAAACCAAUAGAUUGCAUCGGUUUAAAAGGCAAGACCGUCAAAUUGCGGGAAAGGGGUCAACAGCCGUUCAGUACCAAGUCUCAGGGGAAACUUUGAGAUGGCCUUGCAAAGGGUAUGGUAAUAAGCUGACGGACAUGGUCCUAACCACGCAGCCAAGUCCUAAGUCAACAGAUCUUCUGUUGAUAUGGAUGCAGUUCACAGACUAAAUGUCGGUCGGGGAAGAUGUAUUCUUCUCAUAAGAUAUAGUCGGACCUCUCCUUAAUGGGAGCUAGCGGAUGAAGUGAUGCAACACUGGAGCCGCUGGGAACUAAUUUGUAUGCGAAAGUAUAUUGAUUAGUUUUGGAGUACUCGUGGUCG
EXPERIMENTAL_CONTEXT: 37 °C
Write the value as a bare number.

# count of solved cases: 5
{"SEQUENCE_TEXT": "UCGUAGCAAUAUUACGUGGC", "ATTRIBUTE_MEASURED": "self-splicing fitness (ln)", "READOUT_NUMBER": -2.22}
{"SEQUENCE_TEXT": "GGCUAGCAAUAUUACGCCUA", "ATTRIBUTE_MEASURED": "self-splicing fitness (ln)", "READOUT_NUMBER": -1.69}
{"SEQUENCE_TEXT": "AGUCAGCAAUAUUACGGCCG", "ATTRIBUTE_MEASURED": "self-splicing fitness (ln)", "READOUT_NUMBER": -0.527}
{"SEQUENCE_TEXT": "AGCCAGCAAUAUUACGUGGG", "ATTRIBUTE_MEASURED": "self-splicing fitness (ln)", "READOUT_NUMBER": -1.3}
{"SEQUENCE_TEXT": "AAUAAGCAAUAUUACGAUUG", "ATTRIBUTE_MEASURED": "self-splicing fitness (ln)", "READOUT_NUMBER": -1.91}

query: Report self-splicing fitness (ln) for GAUGAGCAAUAUUACGCAAC please.
result: -1.85

query: Report self-splicing fitness (ln) for UACGAGCAAUAUUACGUGAU please.
result: -2.45

query: Report self-splicing fitness (ln) for CGCCAGCAAUAUUACGUCAU please.
result: -3.12

query: Report self-splicing fitness (ln) for AUAUAGCAAUAUUACGAUCA please.
result: -0.365

query: Report self-splicing fitness (ln) for GCCGAGCAAUAUUACGGCGG please.
result: -1.91

query: Report self-splicing fitness (ln) for ACCCAGCAAUAUUACGGCGA please.
result: 0.532

query: Report self-splicing fitness (ln) for AUUCAGCAAUAUUACGUCUA please.
result: -0.557

query: Report self-splicing fitness (ln) for GCUUAGCAAUAUUACGGAUA please.
result: -1.71

query: Report self-splicing fitness (ln) for GCUGAGCAAUAUUACGGUUC please.
result: -1.69

query: Report self-splicing fitness (ln) for UUAAAGCAAUAUUACGGUGA please.
result: 0.559

query: Report self-splicing fitness (ln) for ACGGAGCAAUAUUACGCUCG please.
result: -1.01
